Value source: patent US20230278972A1

// Plant response rating, Foxtail, Giant lookup, one value per entry
Test system: Foxtail, Giant (giant foxtail, Setaria faberi)
assayInfo: Test A postemergence, Foxtail, Giant
Format: in vivo
statedConditions: Postemergence, 31 g ai/ha; 0 to 100 scale (0 no effect, 100 complete control)
readoutName: Plant response rating, Foxtail, Giant

molecule="COC1CCCN(C(=O)c2cc(N(COC(C)=O)S(=O)(=O)C(F)(F)F)c(C)cc2C)C1 (centres unmarked)" testedtarget="Foxtail, Giant (giant foxtail, Setaria faberi)" readoutname="Plant response rating, Foxtail, Giant" measured=0
molecule="Cc1cc(Cl)c(NS(=O)(=O)C(F)(F)F)cc1C(=O)N1CCOC(C)C1 (centres unmarked)" testedtarget="Foxtail, Giant (giant foxtail, Setaria faberi)" readoutname="Plant response rating, Foxtail, Giant" measured=20
molecule="COC1CCCN(C(=O)c2cc(N(C(C)=O)S(=O)(=O)C(F)(F)F)c(C)cc2C)C1 (centres unmarked)" testedtarget="Foxtail, Giant (giant foxtail, Setaria faberi)" readoutname="Plant response rating, Foxtail, Giant" measured=0
molecule="COC1CCCN(C(=O)c2cc(NS(=O)(=O)C(F)(F)F)c(C)c(F)c2C)C1 (centres unmarked)" testedtarget="Foxtail, Giant (giant foxtail, Setaria faberi)" readoutname="Plant response rating, Foxtail, Giant" measured=0
molecule=CO[C@@H]1CCCN(C(=O)c2cc(N(S(=O)(=O)C(F)(F)F)S(=O)(=O)C(F)(F)F)c(C)cc2C)C1 testedtarget="Foxtail, Giant (giant foxtail, Setaria faberi)" readoutname="Plant response rating, Foxtail, Giant" measured=0

----------
Tested on: ragweed (common ragweed, Ambrosia artemisiifolia)
assayInfo: Test A1 preemergence, ragweed
Type: in vivo
statedConditions: 125 g ai/ha, 0 to 100 scale, 0 no effect, 100 complete control
readoutName: Plant response rating, Ragweed

compound="CCOC(=O)N(c1cc(C2=NOC3CCCC23)c(CC)cc1C)S(=O)(=O)C(F)(F)F (centres unmarked) [Compound 379]" measured=0
compound="Cc1cc(C)c(C2=NOC(C(C)C)C2)cc1NS(=O)(=O)C(F)(F)F (centres unmarked) [Compound 381]" measured=0
compound="CCc1cc(C)c(NS(=O)(=O)C(F)(F)F)cc1C1=NOC2CCCC12 (centres unmarked) [Compound 305]" measured=20
compound="Cc1cc(C)c(N(COC(=O)C(C)C)S(=O)(=O)C(F)(F)F)cc1C1=NOC2CCCC12 (centres unmarked) [Compound 308]" measured=50
compound="Cc1c(C(=O)N2C[C@@H](C)O[C@@H](C)C2)cc(N(COC(=O)C(C)(C)C)S(=O)(=O)C(F)(F)F)c(C)c1C [Compound 331]" measured=90
compound="Cc1cc(C)c(N(COC(=O)C(C)(C)C)S(=O)(=O)C(F)(F)F)cc1C(=O)N1CCC(C)CC1 [Compound 353]" measured=20
compound="Cc1cc(C)c(N(COC(=O)C(C)(C)C)S(=O)(=O)C(F)(F)F)cc1C(=O)N1CCC(c2ccccc2)CC1 [Compound 364]" measured=0
compound="Cc1cc(C)c(C2=NOC3OCCCC23)cc1NS(=O)(=O)C(F)(F)F (centres unmarked) [Compound 372]" measured=70

----------
// Corn plant response rating lookup, one value per entry
System: corn (Zea mays)
assayInfo: Test A postemergence, corn
Type: in vivo
statedConditions: Postemergence, 500 g ai/ha; visual injury vs untreated controls after approx. 10 days; 0 to 100 scale (0 no effect, 100 complete control)
readoutName: Corn plant response rating

compound=Cc1cc(C(F)(F)F)c(C(=O)N(C)C)cc1NS(=O)(=O)C(F)(F)F readoutname="Corn plant response rating" measured=10
compound=COc1cnn(C)c(=O)c1-c1cc(NS(=O)(=O)C(F)(F)F)c(C)cc1C readoutname="Corn plant response rating" measured=0
compound="Cc1cc(C)c(C2=NOC(C)(CCl)C2)cc1NS(=O)(=O)C(F)(F)F (stereo not shown)" readoutname="Corn plant response rating" measured=70
compound=Cc1cc(C)c(N(S(=O)(=O)C(F)(F)F)S(=O)(=O)C(F)(F)F)cc1-c1cc(Br)nn(C)c1=O readoutname="Corn plant response rating" measured=0

----------
System: goosegrass (Eleusine indica)
assayInfo: Test A1 postemergence, goosegrass
Assay type: in vivo
statedConditions: 31 g ai/ha, postemergence; 0 to 100 scale (0 no effect, 100 complete control)
// Goosegrass plant response rating lookup, one value per entry
readoutName: Goosegrass plant response rating

compound=Cc1c(NS(=O)(=O)C(F)(F)F)cc(C(=O)N2CCC(C)CC2)c(C)c1C readoutname="Goosegrass plant response rating" measured=0
compound=C#CCN(C)C(=O)c1cc(N(COC(=O)C(C)(C)C)S(=O)(=O)C(F)(F)F)c(C)c(C)c1C readoutname="Goosegrass plant response rating" measured=0
compound=Cc1c(C(=O)N2CCC(C)CC2)cc(N(COC(=O)C(C)(C)C)S(=O)(=O)C(F)(F)F)c(C)c1C readoutname="Goosegrass plant response rating" measured=0
compound="Cc1cc(C)c(N(COC(=O)C(C)(C)C)S(=O)(=O)C(F)(F)F)cc1N1CCC2(CCC(C)CC2)C1=O (centres unmarked)" readoutname="Goosegrass plant response rating" measured=0
compound=COC1CCN(C(=O)c2cc(NS(=O)(=O)C(F)(F)F)c(C)c(C)c2C)CC1 readoutname="Goosegrass plant response rating" measured=10
compound="Cc1cc(C)c(N2CCC3(CCC(C(F)(F)F)CC3)C2=O)cc1NS(=O)(=O)C(F)(F)F (centres unmarked)" readoutname="Goosegrass plant response rating" measured=10
compound="Cc1cc(C)c(N(S(=O)(=O)C(F)(F)F)S(=O)(=O)C(F)(F)F)cc1N1CCC2(CCC(C(F)(F)F)CC2)C1=O (centres unmarked)" readoutname="Goosegrass plant response rating" measured=40
compound=Cc1c(C2=NOC3(CCCC3)C2)cc(N(COC(=O)C(C)(C)C)S(=O)(=O)C(F)(F)F)c(C)c1C readoutname="Goosegrass plant response rating" measured=0
compound="Cc1cc(C)c(C2=NOC3OCCCC23)cc1NS(=O)(=O)C(F)(F)F (centres unmarked)" readoutname="Goosegrass plant response rating" measured=0
compound="Cc1cc(C)c(C2=NOC(C(C)C)C2)cc1NS(=O)(=O)C(F)(F)F (centres unmarked)" readoutname="Goosegrass plant response rating" measured=0
compound=Cc1c(NS(=O)(=O)C(F)(F)F)cc(C2=NOC3(CCCC3)C2)c(C)c1C readoutname="Goosegrass plant response rating" measured=0

----------
System: ragweed (common ragweed, Ambrosia artemisiifolia)
assayInfo: Test A1 postemergence, ragweed
Format: in vivo
statedConditions: Postemergence, 125 g ai/ha; 0 to 100 scale
// Plant response rating, Ragweed lookup, one value per entry
readoutName: Plant response rating, Ragweed

compound=Cc1c(C2=NO[C@@H]3CCC[C@H]23)cc(N(COC(=O)C(C)(C)C)S(=O)(=O)C(F)(F)F)c(C)c1C readoutname="Plant response rating, Ragweed" measured=80
compound="CCc1cc(C)c(N(COC(=O)C(C)(C)C)S(=O)(=O)C(F)(F)F)cc1C1=NOC2CCCC12 (centres unmarked)" readoutname="Plant response rating, Ragweed" measured=30
compound="CCC1ON=C(c2cc(NS(=O)(=O)C(F)(F)F)c(C)cc2C)C1CC (centres unmarked)" readoutname="Plant response rating, Ragweed" measured=80
compound=Cc1c(NS(=O)(=O)C(F)(F)F)cc(C(=O)N2CCC(Cl)CC2)c(C)c1C readoutname="Plant response rating, Ragweed" measured=80
compound="CCOC(=O)N(c1cc(C(=O)N2C[C@@H](C)O[C@H](C)C2)c(C)c(C)c1C)S(=O)(=O)C(F)(F)F (relative stereo)" readoutname="Plant response rating, Ragweed" measured=80
compound="CCC1CC(c2cc(NS(=O)(=O)C(F)(F)F)c(C)cc2C)=NO1 (centres unmarked)" readoutname="Plant response rating, Ragweed" measured=50
compound=Cc1c(C(=O)N2CCC(F)(F)CC2)cc(N(COC(=O)C(C)(C)C)S(=O)(=O)C(F)(F)F)c(C)c1C readoutname="Plant response rating, Ragweed" measured=90
compound="CCC1ON=C(c2cc(N(COC(=O)C(C)(C)C)S(=O)(=O)C(F)(F)F)c(C)cc2C)C1CC (centres unmarked)" readoutname="Plant response rating, Ragweed" measured=70
compound="Cc1cc(C2CC2)c(C2=NOC3CCCC23)cc1N(COC(=O)C(C)(C)C)S(=O)(=O)C(F)(F)F (centres unmarked)" readoutname="Plant response rating, Ragweed" measured=60
compound="CCOC1CC(c2cc(N(COC(=O)C(C)(C)C)S(=O)(=O)C(F)(F)F)c(C)cc2C)=NO1 (centres unmarked)" readoutname="Plant response rating, Ragweed" measured=70
compound="CCCCOC1CC(c2cc(NS(=O)(=O)C(F)(F)F)c(C)cc2C)=NO1 (centres unmarked)" readoutname="Plant response rating, Ragweed" measured=50
compound="CCOC1CC(c2cc(NS(=O)(=O)C(F)(F)F)c(C)cc2C)=NO1 (centres unmarked)" readoutname="Plant response rating, Ragweed" measured=80
compound=CCOC(=O)N(c1cc(C(=O)N2CCC(c3ccccc3)CC2)c(C)cc1C)S(=O)(=O)C(F)(F)F readoutname="Plant response rating, Ragweed" measured=30
compound="Cc1ccc(C2=NOC3CCCC23)cc1NS(=O)(=O)C(F)(F)F (centres unmarked)" readoutname="Plant response rating, Ragweed" measured=30
compound="Cc1c(NS(=O)(=O)C(F)(F)F)cc(C(=O)N2CC(C)OC(C)C2)c(C)c1C (centres unmarked)" readoutname="Plant response rating, Ragweed" measured=90
compound="Cc1cc(C)c(C2=NOC3CCCCCC23)cc1NS(=O)(=O)C(F)(F)F (centres unmarked)" readoutname="Plant response rating, Ragweed" measured=40
compound="Cc1cc(C)c(N(C(=O)OC(C)C)S(=O)(=O)C(F)(F)F)cc1C1=NOC2CCCC12 (centres unmarked)" readoutname="Plant response rating, Ragweed" measured=70
compound="Cc1cc(C)c(N(COC(=O)C(C)C)S(=O)(=O)C(F)(F)F)cc1C1=NOC2CCCC12 (centres unmarked)" readoutname="Plant response rating, Ragweed" measured=90
compound="Cc1cc(C)c(N(COC(=O)C(C)(C)C)S(=O)(=O)C(F)(F)F)cc1C1=NOC2(C)CCCC12 (centres unmarked)" readoutname="Plant response rating, Ragweed" measured=80
compound="Cc1cc(F)c(C2=NOC3CCCC23)cc1NS(=O)(=O)C(F)(F)F (centres unmarked)" readoutname="Plant response rating, Ragweed" measured=30
compound="Cc1c(C(=O)N2C[C@@H](C)O[C@H](C)C2)cc(N(COC(=O)C(C)(C)C)S(=O)(=O)C(F)(F)F)c(C)c1C (relative stereo)" readoutname="Plant response rating, Ragweed" measured=80
compound=Cc1c(C(=O)N(C)C)cc(NS(=O)(=O)C(F)(F)F)c(Cl)c1F readoutname="Plant response rating, Ragweed" measured=80
compound=C#CCN(C)C(=O)c1cc(NS(=O)(=O)C(F)(F)F)c(C)c(C)c1C readoutname="Plant response rating, Ragweed" measured=80
compound=Cc1cc(C)c(N(COC(=O)C(C)(C)C)S(=O)(=O)C(F)(F)F)cc1C(=O)N1CCC(F)(F)CC1 readoutname="Plant response rating, Ragweed" measured=90
compound=Cc1c(C(=O)N2CCC(F)CC2)cc(N(COC(=O)C(C)(C)C)S(=O)(=O)C(F)(F)F)c(C)c1C readoutname="Plant response rating, Ragweed" measured=80
compound="COC1CCCN(C(=O)c2cc(NS(=O)(=O)C(F)(F)F)c(Cl)c(F)c2C)C1 (centres unmarked)" readoutname="Plant response rating, Ragweed" measured=50
compound=Cc1cc(C)c(N(COC(=O)C(C)(C)C)S(=O)(=O)C(F)(F)F)cc1C(=O)N1CCC(c2ccccc2)CC1 readoutname="Plant response rating, Ragweed" measured=0
compound="Cc1cc(C)c(N(S(=O)(=O)C(F)(F)F)S(=O)(=O)C(F)(F)F)cc1C1=NOC2COCC12 (centres unmarked)" readoutname="Plant response rating, Ragweed" measured=30
compound=Cc1cc(C)c(N(COC(=O)C(C)(C)C)S(=O)(=O)C(F)(F)F)cc1C(=O)N1CCOCC1 readoutname="Plant response rating, Ragweed" measured=80
